# subject.of.test: TRPM7 (Mus musculus, UniProt Q923J1)
# Sequence (Q923J1 whole entry): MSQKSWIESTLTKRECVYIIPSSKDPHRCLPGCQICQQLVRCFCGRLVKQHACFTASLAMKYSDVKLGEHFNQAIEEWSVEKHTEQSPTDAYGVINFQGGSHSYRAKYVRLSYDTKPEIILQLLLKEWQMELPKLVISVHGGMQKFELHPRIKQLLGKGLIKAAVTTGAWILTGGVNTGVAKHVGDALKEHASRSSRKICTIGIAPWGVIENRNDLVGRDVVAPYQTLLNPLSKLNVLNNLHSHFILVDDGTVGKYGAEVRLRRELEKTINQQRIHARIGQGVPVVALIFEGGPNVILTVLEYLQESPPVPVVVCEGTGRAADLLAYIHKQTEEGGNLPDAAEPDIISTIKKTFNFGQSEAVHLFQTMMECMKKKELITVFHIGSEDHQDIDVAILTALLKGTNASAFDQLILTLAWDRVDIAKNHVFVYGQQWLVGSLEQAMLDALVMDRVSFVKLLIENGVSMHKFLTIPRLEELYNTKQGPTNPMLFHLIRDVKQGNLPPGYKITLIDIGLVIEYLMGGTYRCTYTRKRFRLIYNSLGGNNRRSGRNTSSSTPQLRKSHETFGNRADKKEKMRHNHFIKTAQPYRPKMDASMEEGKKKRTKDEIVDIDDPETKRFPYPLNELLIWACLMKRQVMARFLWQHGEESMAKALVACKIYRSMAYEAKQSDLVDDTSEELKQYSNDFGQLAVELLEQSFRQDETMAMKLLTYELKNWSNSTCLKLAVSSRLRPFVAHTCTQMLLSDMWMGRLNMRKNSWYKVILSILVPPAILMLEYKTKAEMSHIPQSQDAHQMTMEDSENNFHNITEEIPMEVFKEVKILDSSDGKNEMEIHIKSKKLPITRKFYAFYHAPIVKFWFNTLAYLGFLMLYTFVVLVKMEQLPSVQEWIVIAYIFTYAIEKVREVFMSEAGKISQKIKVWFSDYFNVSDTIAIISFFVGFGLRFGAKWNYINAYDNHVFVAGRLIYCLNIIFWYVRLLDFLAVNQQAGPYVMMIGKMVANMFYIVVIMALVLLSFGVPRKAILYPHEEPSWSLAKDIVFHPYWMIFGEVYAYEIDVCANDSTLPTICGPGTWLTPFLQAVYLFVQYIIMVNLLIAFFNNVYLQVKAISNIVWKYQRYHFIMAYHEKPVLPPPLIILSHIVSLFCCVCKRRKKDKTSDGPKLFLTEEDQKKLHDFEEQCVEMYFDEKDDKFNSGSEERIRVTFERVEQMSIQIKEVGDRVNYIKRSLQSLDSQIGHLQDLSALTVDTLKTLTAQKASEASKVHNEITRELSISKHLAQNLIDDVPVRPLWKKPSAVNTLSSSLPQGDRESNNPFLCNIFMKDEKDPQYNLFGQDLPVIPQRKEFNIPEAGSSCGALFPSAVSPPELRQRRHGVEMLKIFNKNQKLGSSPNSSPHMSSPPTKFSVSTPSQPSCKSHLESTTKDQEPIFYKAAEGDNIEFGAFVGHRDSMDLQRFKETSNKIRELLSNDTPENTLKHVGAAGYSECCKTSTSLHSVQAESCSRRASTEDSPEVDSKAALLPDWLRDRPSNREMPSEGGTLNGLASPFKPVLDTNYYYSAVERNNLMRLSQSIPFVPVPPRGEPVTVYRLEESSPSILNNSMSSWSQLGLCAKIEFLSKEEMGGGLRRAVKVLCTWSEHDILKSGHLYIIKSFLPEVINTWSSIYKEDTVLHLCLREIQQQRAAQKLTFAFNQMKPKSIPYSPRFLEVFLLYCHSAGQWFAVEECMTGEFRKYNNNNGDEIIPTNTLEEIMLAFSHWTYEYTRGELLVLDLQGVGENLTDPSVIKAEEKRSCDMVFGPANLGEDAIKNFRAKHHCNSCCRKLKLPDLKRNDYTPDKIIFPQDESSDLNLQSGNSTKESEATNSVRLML
# run.description: Whole-cell patch-clamp of TRPM7 currents in HEK293-TRPM7
# Format: cell-based
# Design: FLAG; expressed in transfected cells; host or cells: tetracycline-inducible HEK293 cells (pcDNA4/TO vector)
# settings: 700 μM free internal Mg2+; read-out: IC50, inhibition of TRPM7 currents
endpoint: IC50 (nM)
One number for each entry, in nM.

Q: Provide the documented IC50 with TRPM7 (Mus musculus, UniProt Q923J1) as the system for C=C1CC/C=C(\C)CC[C@@H]2C([C@H](C/C=C(\C)COC(C)=O)OC(C)=O)=CO[C@H](OC(C)=O)[C@@H]12 [waixenicin A]
Result: 16

###

# subject.of.test: murine TRPM7 (Mus musculus, UniProt Q923J1)
# Sequence (Q923J1 whole entry): as above
# settings: read-out: IC50 of the maximal slope of the Mn2+ quench; HEK293-TRPM7, 15 min incubation before 10 mM MnCl2
endpoint: IC50

Q: Tell me the measured IC50 of C=C1CC/C=C(\C)CC[C@@H]2C([C@H](C/C=C(\C)COC(C)=O)OC(C)=O)=CO[C@H](OC(C)=O)[C@@H]12 [waixenicin A] , please.
Result: 12 µM

###

Exercise: for every item that follows, state its recorded IC50.
# subject.of.test: murine TRPM7 (Mus musculus)
# settings: read-out: IC50, inhibition of the TRPM7-mediated fura-2 quench by Mn2+; TRPM7-HEK293, 15 min pre-incubation at 37° C., 10 mM MnCl2, endpoint 10 s after MnCl2 addition
Express the reported value numerically, then name its unit.

>  <compound>
[Cl][La]([Cl])[Cl]

>  <IC50>
760 µM

$$$$

Here's the next entry for you.
Q: Would you kindly share the measured IC50 for NCCOB(c1ccccc1)c1ccccc1 [2-APB, 2-aminoethoxydiphenyl borate] ?
Result: 56 µM
